# System: Blumeria graminis
# ASSAY_SUMMARY: Antifungal activity against Blumeria graminis in wheat plant assessed as lesion area of the disease at 500 ug/ml after 10 days
# Type: functional

COMPOUND: CCC1(C(=O)NC(C)C2CCC2)C(C)C1(Cl)Cl (configuration not stated)
Activity: >=80%

COMPOUND: CCC1(C(=O)NCCc2cc(Br)cs2)C(C)C1(Cl)Cl (configuration not stated)
Activity: >=80%

COMPOUND: CCC1(C(=O)NCCc2ccccc2)C(C)C1(Cl)Cl (configuration not stated)
Activity: 0.5%

COMPOUND: CCC1(C(=O)NC(C)C2CC2(Cl)Cl)C(C)C1(Cl)Cl (configuration not stated)
Activity: >=80%

COMPOUND: CCC1(C(=O)NCCc2ccc(F)cc2)C(C)C1(Cl)Cl (configuration not stated)
Activity: <20%

COMPOUND: CCC1(C(=O)NCCCc2ccc(Cl)cc2)C(C)C1(Cl)Cl (configuration not stated)
Activity: >=80%

COMPOUND: CCC1(C(=O)NCCc2ccccc2Cl)C(C)C1(Cl)Cl (configuration not stated)
Activity: >=80%

COMPOUND: CC(C)(C)C(Br)C(=O)NCCc1csc(Cl)c1 (configuration not stated)
Activity: >=80%

COMPOUND: CCC1(C(=O)NC(C)C2CCCCCC2)C(C)C1(Cl)Cl (configuration not stated)
Activity: >=80%

COMPOUND: CCC1(C(=O)Nc2ccc(Cl)cc2)C(C)C1(Cl)Cl (configuration not stated)
Activity: >=80%

COMPOUND: CC1(C(=O)NCCc2csc(Cl)c2)CC1(Cl)Cl (configuration not stated)
Activity: >=80%

COMPOUND: CCC1(C(=O)NCCc2ccsc2)C(C)C1(Cl)Cl (configuration not stated)
Activity: >=80%

====

# Test system: Botrytis cinerea
# ASSAY_SUMMARY: Antifungal activity against Botryotinia fuckeliana in cucumber cotyledon assessed as lesion area of the disease at 500 ug/ml after 4 days
# Format: functional

COMPOUND: CCC1(C(=O)NCCc2csc(Cl)n2)C(C)C1(Cl)Cl (centres undefined)
TARGET_DESC: Botrytis cinerea
Activity: >=80%
--
COMPOUND: CCC1(C(=O)OCCc2csc(Cl)c2)C(C)C1(Cl)Cl (centres undefined)
TARGET_DESC: Botrytis cinerea
Activity: 2.5%
--
COMPOUND: CCC1(C(=O)NC(C)C)C(C)C1(Cl)Cl (centres undefined)
TARGET_DESC: Botrytis cinerea
Activity: 3.5%
--
COMPOUND: CC(C)(C)C(Br)C(=O)NCCc1csc(Cl)c1 (centres undefined)
TARGET_DESC: Botrytis cinerea
Activity: >=80%
--
COMPOUND: CCC1(C(=O)NCCc2ccc(C(F)(F)F)cc2)C(C)C1(Cl)Cl (centres undefined)
TARGET_DESC: Botrytis cinerea
Activity: >=80%
--
COMPOUND: CCC1(C(=O)NC(C)C2CCC2)C(C)C1(Cl)Cl (centres undefined)
TARGET_DESC: Botrytis cinerea
Activity: >=80%
--
COMPOUND: CCC(C)NC(=O)C1(CC)C(C)C1(Cl)Cl (centres undefined)
TARGET_DESC: Botrytis cinerea
Activity: <20%
--
COMPOUND: CCC1(C(=O)NCCc2ccc(F)cc2F)C(C)C1(Cl)Cl (centres undefined)
TARGET_DESC: Botrytis cinerea
Activity: <20%
--
COMPOUND: CCC1(C(=O)NCCc2ccc(Cl)cc2)C(C)C1(Cl)Cl (centres undefined)
TARGET_DESC: Botrytis cinerea
Activity: >=80%
--
COMPOUND: CCC1(C(=O)NC(C)C2CCCCCC2)C(C)C1(Cl)Cl (centres undefined)
TARGET_DESC: Botrytis cinerea
Activity: >=80%
--
COMPOUND: CC(C)(C)CC(=O)NCCc1csc(Cl)c1
TARGET_DESC: Botrytis cinerea
Activity: >=80%
--
COMPOUND: CCC1(C(=O)NCCc2ccc(Br)cc2)C(C)C1(Cl)Cl (centres undefined)
TARGET_DESC: Botrytis cinerea
Activity: >=80%
--
COMPOUND: CCC1(C(=O)NCCCc2ccc(Cl)cc2)C(C)C1(Cl)Cl (centres undefined)
TARGET_DESC: Botrytis cinerea
Activity: >=80%
--
COMPOUND: CCC1(C(=O)NCCc2ccc(Cl)s2)C(C)C1(Cl)Cl (centres undefined)
TARGET_DESC: Botrytis cinerea
Activity: >=80%
--
COMPOUND: CCC1(C(=O)NC(C)CC(F)(F)F)C(C)C1(Cl)Cl (centres undefined)
TARGET_DESC: Botrytis cinerea
Activity: >=80%
--
COMPOUND: CCC1(C(=O)NC(C)C2CCCCC2)C(C)C1(Cl)Cl (centres undefined)
TARGET_DESC: Botrytis cinerea
Activity: >=80%
--
COMPOUND: CCC1(C(=O)NCCc2ccsc2)C(C)C1(Cl)Cl (centres undefined)
TARGET_DESC: Botrytis cinerea
Activity: >=80%
--
COMPOUND: CCC1(C(=O)NC(C)Cc2ccc(Cl)cc2)C(C)C1(Cl)Cl (centres undefined)
TARGET_DESC: Botrytis cinerea
Activity: >=80%
--
COMPOUND: CC(C)(C)C(Cl)C(=O)NCCc1csc(Cl)c1 (centres undefined)
TARGET_DESC: Botrytis cinerea
Activity: >=80%
--
COMPOUND: CC(NC(=O)C1(c2ccccc2)CC1(Cl)Cl)c1ccc(Cl)cc1 (centres undefined)
TARGET_DESC: Botrytis cinerea
Activity: >=80%
--
COMPOUND: CCC1(C(=O)NCCc2ccc(C)cc2)C(C)C1(Cl)Cl (centres undefined)
TARGET_DESC: Botrytis cinerea
Activity: >=80%
--
COMPOUND: CC1(C)C(C(=O)NCCc2csc(Cl)c2)C1(Cl)Cl (centres undefined)
TARGET_DESC: Botrytis cinerea
Activity: >=80%
--
COMPOUND: CC[C@@]1(C(=O)N[C@H](C)c2ccc(Cl)cc2)[C@@H](C)C1(Cl)Cl [CARPROPAMIDE]
TARGET_DESC: Botrytis cinerea
Activity: >=80%
--
COMPOUND: CCC1(C(=O)NCC(C)c2ccc(Cl)cc2)C(C)C1(Cl)Cl (centres undefined)
TARGET_DESC: Botrytis cinerea
Activity: >=80%

Just for reference, ChEMBL document CHEMBL3045490 is where these values come from.
